System: A498 renal
Experiment: NCI tumour cell line growth inhibition, 48 h

compound	TGI
Cc1ccsc1/C=N/Nc1cc(C)c2cccc(C)c2n1	> 100 µM
CCOc1cc(NC(C)=O)ccc1C(=O)NN1C(=O)C(Oc2ccccc2)C1c1ccccc1 (stereo not drawn)	> 100 µM
CN1NC2(CCCCC2)ON=C1c1ccccc1	> 100 µM
COc1ccc(C(N)=O)cc1N=NN(C)C	> 100 µM
Cn1ncc2c(N)nc(N3CCCCC3)nc21	42.9 µM
O=C(Nc1c[nH]c(=O)[nH]c1=O)C(Cl)Cl	> 100 µM
CC(=O)NCCC1CN(C(=O)/C=C\C#C[Si](C)(C)C)c2ccccc21 (stereo not drawn)	> 100 µM
COc1ccc2[nH]c(Cl)c(/C=C3/C(=O)Nc4cc(C)c(OC)cc43)c2c1	19.2 µM
CN(CN1C(=O)C2Cc3ccccc3CN2C1=O)c1ccccn1 (stereo not drawn)	> 100 µM
CCCCc1c(C(=O)OC(C)(C)C)cc(C#Cc2cc(C(=O)OC(C)(C)C)c(CCCC)c(C(=O)OC(C)(C)C)c2)cc1C(=O)OC(C)(C)C	> 100 µM
Cc1cc(O)c2c(c1O)C(=O)C13C(=C2O)C(=O)C2C(O)C1C1C(O)C3C(=O)C3=C(O)c4c(O)cc(C)c(O)c4C(=O)C321 (stereo not drawn)	0.253 µM
COc1cc(/C=C2\CC3C4CC=C5C[C@@H](OC(C)=O)CC[C@]5(C)C4CC[C@]3(C)C2=O)ccc1OCCCn1ccnc1 (stereo partly drawn)	21.6 µM
Cn1c(=O)nc2n(-c3cccc(F)c3)c3ccccc3nc-2c1=O	> 100 µM

###

Test system: UACC-257 melanoma
Experiment: NCI tumour cell line growth inhibition, 48 h
Listed here: items and their measured TGI.

compound	TGI
Cn1c(C(C#N)c2nc(Cl)ncc2Br)nc2ccccc21 (stereo not given)	> 100 µM
Cc1ccnc2[nH]c(-c3cccc(Cl)c3)cc(=O)c12	> 100 µM
C/C(=N/NC(=S)Nc1ccccc1Cl)c1cccc(/C(C)=N\NC(=S)Nc2ccccc2Cl)n1	> 100 µM
O=c1nc(Nc2cccc(Cl)c2)oc2cc(Cl)oc(=O)c12	23.9 µM
c1ccc(-c2sc(-c3cccs3)cc2Cc2cccs2)cc1	> 10 µM

###

Values of GI50 reported for SN12C renal appear below.

structure string	GI50
O=[N+]([O-])c1ccc(N/N=C/c2c(O)ccc3ccccc23)nc1	48500 nM
COc1ccc(/C=C/c2nc(NCCCN(C)C)c3ccccc3n2)cc1	11800 nM
CCNC(=O)C#CC(=O)NCC	> 10000 nM
C=C1C(=O)O[C@H]2[C@H]1CC/C(COC(=O)NCc1ccc(Cn3c(=O)sn(CCCCl)c3=O)cc1)=C\CC[C@@]1(C)O[C@@H]21	1360 nM
COC(=O)c1c2c(c(C)[n+]([O-])c1C)C(=O)C=C(NCc1ccc(F)c(F)c1)C2=O	294 nM
COc1cc(/C=C\[N+](=O)[O-])ccc1OCc1ccccc1	2770 nM
CC[C@@]1(O)C(=O)NCc2c1cc1n(c2=O)Cc2cc3c(N)cccc3nc2-1	529 nM

###

Tested on: HT29 colon
Assay: NCI tumour cell line growth inhibition, 48 h
Listed here: items and their measured TGI.

molecule	TGI
N#Cc1cnc2cc(OC[C@@H](O)CO)c(NC(=O)CC3CSSC3)cc2c1Nc1ccc(OCc2cccc(F)c2)c(Cl)c1	0.759 µM
CCOC(=O)C(Cc1c[nH]c2ccc(N(CCCl)CCCl)cc12)(NC(C)=O)C(=O)OCC	77.4 µM
CC1(C)OC(=O)C=C([O-])O1.CC1(C)OC(=O)C=C([O-])O1.O=S(=O)([O-])c1ccc([O-])c2ncccc12.O=S(=O)([O-])c1ccc([O-])c2ncccc12.[Ti+4]	> 100 µM
COc1cccc(NC(=O)CC(=O)N2N=C(N(CCC#N)c3ccccc3C)CC2c2ccccc2)c1 (stereo not given)	> 100 µM
COc1cc(/C=C\[N+](=O)[O-])ccc1OCc1ccccc1	4 µM

###

Listed here: items and their measured TGI.
Test system: MALME-3M melanoma
Assay: NCI tumour cell line growth inhibition, 48 h
readout: TGI

compound	tested system	readout	observed measurement
O=C(Nc1nc2ccccc2n1Cc1ccccc1)NC12CC3CC(CC(C3)C1)C2	MALME-3M melanoma	TGI	> 100 µM
CC(C)=CC(=O)O[C@H]1C(=O)O[C@@H]2C[C@H]3[C@H](C)C(=O)C(O[C@@H]4O[C@H](CO)[C@@H](O)[C@H](O)[C@H]4O)=C[C@]3(C)[C@H]3[C@@H](O)[C@H](O)[C@]4(C(=O)O)OC[C@]32[C@@H]14	MALME-3M melanoma	TGI	61.1 µM
C=C=C(CC)C(C(=O)OC)N(CC)CC (centres undefined)	MALME-3M melanoma	TGI	> 100 µM
COc1cccc(NC(=O)CC(=O)N2N=C(N(CCC#N)c3ccccc3C)CC2c2ccccc2)c1 (centres undefined)	MALME-3M melanoma	TGI	> 100 µM
O=C(NCCCNc1cc(-c2cn(-c3ccccc3)nc2-c2cccc(O)c2)ccn1)c1ccccc1	MALME-3M melanoma	TGI	4.53 µM
O=C1C[C@@H]2C(COC(=O)c3ccccc3)N(OCc3ccccc3)C[C@@H]2O1 (some centres undefined)	MALME-3M melanoma	TGI	> 100 µM
C=C1C(=O)OC2(C)C3CCC(C3)C12 (centres undefined)	MALME-3M melanoma	TGI	> 100 µM
O=C(N=C1SCCN1C(=O)C(C(F)(F)F)C(F)(F)F)C(C(F)(F)F)C(F)(F)F	MALME-3M melanoma	TGI	> 100 µM
C[C@]1(CO)[C@H]2CC[C@@]34C=C[C@@](CO)(CC[C@H]3[C@]2(C)CC[C@H]1O)C4	MALME-3M melanoma	TGI	> 100 µM
O=C1CSC(/C(=C\c2ccc(Cl)cc2)c2nc3ccccc3[nH]2)=N1	MALME-3M melanoma	TGI	31.6 µM
COC1CC2C=C(C)/C=C/C=C/C(=O)NC(c3ccccc3)C/C=C/CCC(O)CC(=O)C2=C1O (centres undefined)	MALME-3M melanoma	TGI	1.19 µM
CC(=O)O[C@H]1CC[C@@]2(C)C(=CC[C@H]3[C@@H]4C/C(=C\c5cccc(OCCN6CCOCC6)c5)[C@H](OC(C)=O)[C@@]4(C)CC[C@@H]32)C1	MALME-3M melanoma	TGI	23.5 µM
NC(=O)c1nnc2cc(F)ccc2c1N	MALME-3M melanoma	TGI	> 100 µM
C=CCOc1ccccc1N=N/C(C#N)=N\Nc1ccccc1OCC=C	MALME-3M melanoma	TGI	> 100 µM
CC(=O)N1CCc2c([nH]c3ccc(Br)cc23)C1c1ccccc1 (centres undefined)	MALME-3M melanoma	TGI	> 10 µM
Cc1c2c(cc3c1[nH]c1ccccc13)C=NCC2	MALME-3M melanoma	TGI	11.7 µM
COc1ccccc1NC(=O)n1nc(N)c2ccccc21	MALME-3M melanoma	TGI	> 100 µM
O=C(O)CCCCCOc1cccnc1/C=N/NC1=NCCN1	MALME-3M melanoma	TGI	> 100 µM
COc1ccc2cc1Oc1ccc(cc1)C(Sc1ccccc1)CCOC(=O)CC2 (centres undefined)	MALME-3M melanoma	TGI	> 100 µM
C(CCC[Te][Te]CCCCCCOC1CCCCO1)CCOC1CCCCO1 (centres undefined)	MALME-3M melanoma	TGI	20.5 µM
O=C(c1ccc2ncc(-c3nc(NC4CC4)ncc3F)n2c1)N1CCOCC1	MALME-3M melanoma	TGI	8.35 µM
CCNC(=O)C#CC(=O)NCC	MALME-3M melanoma	TGI	> 100 µM
NNc1nc2ccccc2c(=O)n1NC(=O)C(=O)Nc1cccc(C(F)(F)F)c1	MALME-3M melanoma	TGI	> 100 µM
NC1CCN(c2nc(Nc3cccc(C(F)(F)F)c3)c3c(=O)[nH]ccc3n2)CC1	MALME-3M melanoma	TGI	3.83 µM
O=C(NCCCCCCNC(=O)n1cc(F)c(=O)[nH]c1=O)NCCCOCCOCCCNC(=O)C(O)C(O)C(O)C(O)CO (centres undefined)	MALME-3M melanoma	TGI	> 2.5 µM
Cc1cc(CNC(=O)OCc2ccccc2)c(C)c2c1Oc1ccccc1O2	MALME-3M melanoma	TGI	> 100 µM
COc1ccc(O[C@H](COCc2ccccc2)C[C@@H]2COC(C)(C)O2)cc1	MALME-3M melanoma	TGI	> 100 µM
CCOC(=O)C(CO)c1nc2c([nH]c1=O)c(=O)n(C)c(=O)n2C (centres undefined)	MALME-3M melanoma	TGI	> 100 µM
COc1ccc2c(c1OC)C1=C(C2=O)c2cc3c(cc2CCN1)OCO3	MALME-3M melanoma	TGI	> 100 µM
COc1ccccc1C1SCC(=O)N1c1ccc(-c2ccc(-n3c(-c4ccccc4)nc4ccccc4c3=O)cc2)cc1 (centres undefined)	MALME-3M melanoma	TGI	> 100 µM
CCOC(=O)/C(=C\c1ccc(N(C)C)cc1)S(=O)(=O)C(F)(F)C(F)(F)C(F)(F)C(F)(F)F	MALME-3M melanoma	TGI	> 100 µM
COc1ccc(/C=C/c2nc(NCCCN(C)C)c3ccccc3n2)cc1	MALME-3M melanoma	TGI	3.18 µM
CC(C)[C@@H]1CC[C@@H](C)C[C@H]1OC(=O)/C=C1/C2C=CC(O2)C1C(=O)O[C@@H]1C[C@H](C)CC[C@H]1C(C)C (some centres undefined)	MALME-3M melanoma	TGI	> 100 µM
Cn1c(C(C#N)c2nc(Cl)ncc2Br)nc2ccccc21 (centres undefined)	MALME-3M melanoma	TGI	> 100 µM
O=C1CC(=O)c2c(O)cc(O)c(c2O)-c2c(ccc(O)c2O)C2=CC(=O)c3c(O)cc(O)c(c3O2)-c2c1ccc(O)c2O (tested in a mixture with another compound)	MALME-3M melanoma	TGI	> 50 µM
ClC(Cl)c1nc(-c2cccnc2)n2nc(-c3ccccc3)cc2n1	MALME-3M melanoma	TGI	3.25 µM
CCOC(=O)Nc1c(C#N)[n+]([O-])c2cc(Cl)c(Cl)cc2[n+]1[O-]	MALME-3M melanoma	TGI	37.6 µM
O=C1Sc2ccc(Br)cc2C(=O)Sc2ccccc21	MALME-3M melanoma	TGI	23.6 µM
COc1ccc(C(N)=O)cc1N=NN(C)C	MALME-3M melanoma	TGI	> 100 µM

Reference source for all entries: PubChem BioAssay (NCI)
